// reported relative affinity RIR +11 for each item listed
Target: RIR +11 (rat insulin receptor, B isoform) (Rattus norvegicus, UniProt P15127)
Sequence (P15127 27-759 limits assumed): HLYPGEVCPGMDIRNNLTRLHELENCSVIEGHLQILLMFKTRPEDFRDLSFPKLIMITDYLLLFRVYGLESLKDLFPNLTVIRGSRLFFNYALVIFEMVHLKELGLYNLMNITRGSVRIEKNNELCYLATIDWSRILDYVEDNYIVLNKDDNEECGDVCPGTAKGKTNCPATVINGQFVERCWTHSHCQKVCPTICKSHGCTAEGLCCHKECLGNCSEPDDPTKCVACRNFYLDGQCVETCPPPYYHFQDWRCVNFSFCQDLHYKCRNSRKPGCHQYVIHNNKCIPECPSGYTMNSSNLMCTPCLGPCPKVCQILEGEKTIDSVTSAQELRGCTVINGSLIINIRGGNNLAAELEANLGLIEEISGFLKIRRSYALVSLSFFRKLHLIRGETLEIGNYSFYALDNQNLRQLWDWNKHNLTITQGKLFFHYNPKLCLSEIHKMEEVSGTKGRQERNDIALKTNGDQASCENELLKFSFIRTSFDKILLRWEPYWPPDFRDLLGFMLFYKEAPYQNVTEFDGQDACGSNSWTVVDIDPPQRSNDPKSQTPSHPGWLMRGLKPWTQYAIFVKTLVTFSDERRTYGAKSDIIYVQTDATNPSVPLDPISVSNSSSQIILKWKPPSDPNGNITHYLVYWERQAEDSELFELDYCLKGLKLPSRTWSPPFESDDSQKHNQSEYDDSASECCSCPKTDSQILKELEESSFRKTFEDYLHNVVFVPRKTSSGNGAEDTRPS
Sequence (P15127 764-1383 partner limits assumed): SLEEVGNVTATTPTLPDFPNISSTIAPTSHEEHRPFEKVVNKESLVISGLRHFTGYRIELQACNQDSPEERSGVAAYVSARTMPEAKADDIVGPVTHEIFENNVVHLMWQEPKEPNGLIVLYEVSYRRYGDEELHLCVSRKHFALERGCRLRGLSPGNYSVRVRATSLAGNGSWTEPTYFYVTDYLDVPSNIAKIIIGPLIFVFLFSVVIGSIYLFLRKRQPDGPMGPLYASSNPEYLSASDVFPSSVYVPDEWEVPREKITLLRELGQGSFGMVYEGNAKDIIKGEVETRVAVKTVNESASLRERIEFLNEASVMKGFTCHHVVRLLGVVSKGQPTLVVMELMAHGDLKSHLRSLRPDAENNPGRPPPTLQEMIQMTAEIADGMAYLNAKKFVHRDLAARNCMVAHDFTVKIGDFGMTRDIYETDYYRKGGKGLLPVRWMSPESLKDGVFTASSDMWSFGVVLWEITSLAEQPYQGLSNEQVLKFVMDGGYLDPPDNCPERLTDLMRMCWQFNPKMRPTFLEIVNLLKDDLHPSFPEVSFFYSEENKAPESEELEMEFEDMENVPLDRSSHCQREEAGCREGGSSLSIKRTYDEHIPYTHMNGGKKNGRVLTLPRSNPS
Assay: Binding of IM peptides to IR isoform RIR +11
Conditions: +11 (B) isoform
Ends that are not written are not given here.
readout.kind: relative affinity RIR +11

substance	readout.value
MeO-PEG5000-SLEEEWAQIECEVYGRGCPSESFYDWFERQL ({MeO‑PEG5000}-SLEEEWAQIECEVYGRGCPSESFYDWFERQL; cysteine pairing not given here) [compound 660]	9
SLEEEWAQVECEVYERGCPSESFYDWFERQL [compound 696]	0.2
SLEEEWAQIQEEVWGRGEPSESFYDWFERQL [compound 700]	13
